- Tested on: MCF7
- testSummary: Anticancer activity against human MCF7 cells assessed as reduction in cell viability by SRB assay
- Assay type: functional, cell-based
observable: IC50 (µM)
Field format: number, assumed µM, no unit text.

Exercise: Return IC50 for the following compound: "Cc1cc(=O)oc2cc(OCCOCCN3C(=O)/C(=N/O)c4cc(F)ccc43)ccc12"
Solution: 11.3

* * *

- System: HT-29
- testSummary: Cytotoxicity against human HT-29 cells assessed as reduction in cell viability by MTT assay
- Type: functional, cell-based
observable: pIC50
In simple prose, pIC50 is minus the logarithm base ten of a concentration in moles per litre.

Exercise: # return recorded pIC50 for input "Cc1c(C)c2ccc(OCn3cc(CCO[C@H]4O[C@@H]5O[C@@]6(C)CC[C@H]7[C@H](C)CC[C@@H]([C@H]4C)[C@@]57OO6)nn3)cc2oc1=O"
Solution: 5.61

Exercise: Using known records, supply pIC50 for "Cc1cc(=O)oc2cc(OCCCn3cc(CO[C@H]4O[C@@H]5O[C@@]6(C)CC[C@H]7[C@H](C)CC[C@@H]([C@H]4C)[C@@]57OO6)nn3)ccc12"
Solution: 5.91

Exercise: Identify the reported pIC50 for the following entry. "C[C@H]1[C@@H](OCc2cn(CCCOc3ccc4c(C(F)(F)F)cc(=O)oc4c3)nn2)O[C@@H]2O[C@@]3(C)CC[C@H]4[C@H](C)CC[C@@H]1[C@@]24OO3"
Solution: 5.91

Exercise: State its pIC50 for this compound: "CCOC(=O)c1cc2ccc(OCCn3cc(CO[C@H]4O[C@@H]5O[C@@]6(C)CC[C@H]7[C@H](C)CC[C@@H]([C@H]4C)[C@@]57OO6)nn3)cc2oc1=O"
Solution: 7.30

* * *

- System: MCF7
- testSummary: Anticancer activity against human MCF7 cells assessed as inhibition of cell proliferation measured after 72 hrs by MTT assay
- Assay type: functional, cell-based
- cond: MCF7, 72 h
observable: pIC50
Convention used: pIC50 is expressed as -log10 of the molar concentration.

Exercise: Provide pIC50 value for the following molecule: "O=C(O)COc1ccc2ccccc2c1/C=C/C(=O)c1cc2c(ccc3ccccc32)oc1=O"
Solution: 4.81

* * *

- Tested on: HT-29
- testSummary: Cytotoxicity against human HT-29 cells assessed as reduction in cell viability by MTT assay
- Format: functional, cell-based
observable: IC50

Exercise: Give IC50 for the following compound: "Cc1c(C)c2ccc(OCCCn3cc(CO[C@H]4O[C@@H]5O[C@@]6(C)CC[C@H]7[C@H](C)CC[C@@H]([C@H]4C)[C@@]57OO6)nn3)cc2oc1=O"
Solution: 1220 nM

Exercise: Supply measured IC50 of "Cc1c(Cl)c(=O)oc2cc(OCn3cc(CCO[C@H]4O[C@@H]5O[C@@]6(C)CC[C@H]7[C@H](C)CC[C@@H]([C@H]4C)[C@@]57OO6)nn3)ccc12" in your reply.
Solution: 2460 nM

Exercise: Kindly indicate its recorded IC50. Item: "C[C@H]1[C@@H](OCc2cn(CCOc3ccc4c(C(F)(F)F)cc(=O)oc4c3)nn2)O[C@@H]2O[C@@]3(C)CC[C@H]4[C@H](C)CC[C@@H]1[C@@]24OO3"
Solution: 50 nM

Exercise: Note down IC50 recorded for "C[C@H]1[C@@H](OCCc2cn(COc3ccc4c(C(F)(F)F)cc(=O)oc4c3)nn2)O[C@@H]2O[C@@]3(C)CC[C@H]4[C@H](C)CC[C@@H]1[C@@]24OO3"
Solution: 2460 nM

Exercise: State its IC50 for this compound: "Cc1cc(=O)oc2cc(OCCn3cc(CO[C@H]4O[C@@H]5O[C@@]6(C)CC[C@H]7[C@H](C)CC[C@@H]([C@H]4C)[C@@]57OO6)nn3)ccc12"
Solution: 50 nM

Exercise: Name the recorded IC50 of the item "Cc1c(C)c2ccc(OCCn3cc(CO[C@H]4O[C@@H]5O[C@@]6(C)CC[C@H]7[C@H](C)CC[C@@H]([C@H]4C)[C@@]57OO6)nn3)cc2oc1=O" in your answer.
Solution: 50 nM

Exercise: # return recorded IC50 for entry "Cc1cc(=O)oc2cc(OCn3cc(CCCO[C@H]4O[C@@H]5O[C@@]6(C)CC[C@H]7[C@H](C)CC[C@@H]([C@H]4C)[C@@]57OO6)nn3)ccc12"
Solution: > 100000 nM

Exercise: Recall and state the measured IC50 for "CCOC(=O)c1cc2ccc(OCn3cc(CCO[C@H]4O[C@@H]5O[C@@]6(C)CC[C@H]7[C@H](C)CC[C@@H]([C@H]4C)[C@@]57OO6)nn3)cc2oc1=O" .
Solution: 2460 nM

Exercise: Give the reported value of IC50 for this record: "Cc1c(Cl)c(=O)oc2cc(OCCCn3cc(CO[C@H]4O[C@@H]5O[C@@]6(C)CC[C@H]7[C@H](C)CC[C@@H]([C@H]4C)[C@@]57OO6)nn3)ccc12"
Solution: 1220 nM

Exercise: For the compound "Cc1c(Cl)c(=O)oc2cc(OCn3cc(CCCO[C@H]4O[C@@H]5O[C@@]6(C)CC[C@H]7[C@H](C)CC[C@@H]([C@H]4C)[C@@]57OO6)nn3)ccc12" , give its reported IC50.
Solution: > 100000 nM

Exercise: Complete the entry with IC50 for "C[C@H]1[C@@H](OCCCc2cn(COc3ccc4c(C(F)(F)F)cc(=O)oc4c3)nn2)O[C@@H]2O[C@@]3(C)CC[C@H]4[C@H](C)CC[C@@H]1[C@@]24OO3"
Solution: > 100000 nM

* * *

- Tested on: MDA-MB-231
- testSummary: Antiproliferative activity against human MDA-MB-231 cells assessed as cell growth inhibition by SRB assay
- Type: functional, cell-based
observable: IC50
Form field: result (number plus unit)

Exercise: Fill in IC50 for record "O=C(N/N=C/c1c(Cl)c2ccccc2oc1=O)c1ccccc1"
Solution: 9.1 µM

* * *

- Test system: HT-29
- testSummary: Cytotoxicity against human HT-29 cells assessed as reduction in cell viability by MTT assay
- Assay type: functional, cell-based
Hi there, I'd appreciate the recorded pIC50 for every entry that follows.
Conceptually, pIC50 converts a concentration in mol/L into minus its log10.

Exercise: Fill in pIC50 for "CCOC(=O)c1cc2ccc(OCCCn3cc(CO[C@H]4O[C@@H]5O[C@@]6(C)CC[C@H]7[C@H](C)CC[C@@H]([C@H]4C)[C@@]57OO6)nn3)cc2oc1=O" tested with HT-29.
Solution: 5.91

Exercise: Provide HT-29 pIC50 reading for "Cc1c(Cl)c(=O)oc2cc(OCCn3cc(CO[C@H]4O[C@@H]5O[C@@]6(C)CC[C@H]7[C@H](C)CC[C@@H]([C@H]4C)[C@@]57OO6)nn3)ccc12" .
Solution: 7.30

Exercise: Write down measured pIC50 (HT-29) for this compound. "Cc1cc(=O)oc2cc(OCn3cc(CCO[C@H]4O[C@@H]5O[C@@]6(C)CC[C@H]7[C@H](C)CC[C@@H]([C@H]4C)[C@@]57OO6)nn3)ccc12"
Solution: 5.61

* * *

- assayTarget: ALK tyrosine kinase receptor (Homo sapiens, UniProt Q9UM73, L1196M)
- Sequence (Q9UM73 19-1620 L1196M limits assumed): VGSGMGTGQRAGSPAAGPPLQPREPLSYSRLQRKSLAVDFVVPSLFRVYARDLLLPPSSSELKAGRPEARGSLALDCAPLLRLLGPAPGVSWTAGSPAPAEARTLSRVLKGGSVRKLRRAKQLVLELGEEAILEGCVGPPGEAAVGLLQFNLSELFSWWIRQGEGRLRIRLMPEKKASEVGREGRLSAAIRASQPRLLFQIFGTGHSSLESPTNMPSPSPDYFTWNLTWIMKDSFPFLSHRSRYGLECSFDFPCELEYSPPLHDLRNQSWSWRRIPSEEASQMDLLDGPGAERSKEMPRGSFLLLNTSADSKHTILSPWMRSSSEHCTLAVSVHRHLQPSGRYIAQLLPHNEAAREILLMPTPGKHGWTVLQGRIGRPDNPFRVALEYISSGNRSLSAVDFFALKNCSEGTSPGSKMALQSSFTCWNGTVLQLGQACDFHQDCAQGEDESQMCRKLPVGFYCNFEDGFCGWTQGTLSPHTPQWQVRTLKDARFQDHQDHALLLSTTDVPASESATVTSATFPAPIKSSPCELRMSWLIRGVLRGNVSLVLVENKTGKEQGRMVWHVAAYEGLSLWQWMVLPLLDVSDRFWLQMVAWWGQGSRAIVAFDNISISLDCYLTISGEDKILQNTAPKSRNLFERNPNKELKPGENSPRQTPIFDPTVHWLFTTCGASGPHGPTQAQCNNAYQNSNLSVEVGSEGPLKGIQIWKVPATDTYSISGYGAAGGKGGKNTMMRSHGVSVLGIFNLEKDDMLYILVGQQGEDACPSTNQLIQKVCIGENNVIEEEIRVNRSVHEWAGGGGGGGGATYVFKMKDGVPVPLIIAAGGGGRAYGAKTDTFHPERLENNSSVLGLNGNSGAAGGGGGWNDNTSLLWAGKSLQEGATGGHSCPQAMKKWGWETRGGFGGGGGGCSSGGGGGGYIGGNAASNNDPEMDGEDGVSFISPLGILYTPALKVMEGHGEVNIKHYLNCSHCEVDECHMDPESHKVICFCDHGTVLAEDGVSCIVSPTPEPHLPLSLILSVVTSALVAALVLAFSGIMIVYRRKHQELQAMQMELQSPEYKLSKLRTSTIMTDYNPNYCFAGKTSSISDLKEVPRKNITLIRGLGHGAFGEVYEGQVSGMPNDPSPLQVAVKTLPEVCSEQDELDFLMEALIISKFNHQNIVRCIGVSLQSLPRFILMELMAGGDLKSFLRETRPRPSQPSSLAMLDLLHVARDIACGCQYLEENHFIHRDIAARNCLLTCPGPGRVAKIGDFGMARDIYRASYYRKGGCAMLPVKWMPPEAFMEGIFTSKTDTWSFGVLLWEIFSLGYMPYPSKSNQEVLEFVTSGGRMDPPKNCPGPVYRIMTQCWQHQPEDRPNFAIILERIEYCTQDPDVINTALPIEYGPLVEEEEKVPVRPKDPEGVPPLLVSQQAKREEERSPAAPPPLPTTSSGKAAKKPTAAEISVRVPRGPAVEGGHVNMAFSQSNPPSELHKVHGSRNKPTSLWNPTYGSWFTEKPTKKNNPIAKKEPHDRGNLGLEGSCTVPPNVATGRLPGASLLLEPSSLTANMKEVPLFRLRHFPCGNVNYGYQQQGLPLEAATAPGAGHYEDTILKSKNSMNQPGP
- testSummary: Inhibition of ALK L1196M mutant (unknown origin)
observable: IC50
Number plus unit, in that order.

Exercise: Look up and state reported IC50 for "COc1ccc2cc(-c3nc4ccc(OC)cc4s3)c(=O)oc2c1"
Solution: 450 nM

Exercise: Specify IC50 for "COc1ccc2nc(-c3cc4ccc(N5CCOCC5)cc4oc3=O)sc2c1" and stop.
Solution: 270 nM

* * *

- assayTarget: ALK tyrosine kinase receptor (Homo sapiens, UniProt Q9UM73, G1202R)
- Sequence (Q9UM73 19-1620 G1202R limits assumed): as the sequence (Q9UM73 19-1620 L1196M limits assumed) above, with M1178L, G1184R counted along it
- testSummary: Inhibition of ALK G1202R mutant (unknown origin)
observable: IC50 (nM)
Form entry: value (nM) — number only.

Exercise: Given "COc1ccc2nc(-c3cc4ccc(N5CCOCC5)cc4oc3=O)sc2c1" , report its IC50 on ALK tyrosine kinase receptor (Homo sapiens, UniProt Q9UM73, G1202R).
Solution: 590

* * *

- System: MCF7
- testSummary: Cytotoxicity against human MCF7 cells assessed as cell growth inhibition by SRB assay
- Type: functional, cell-based
observable: pIC50
Here pIC50 is given on a logarithmic scale as minus log10 of the concentration in mol/L.

Exercise: Find the measured pIC50 of "Cc1c(-c2csc(N)n2)c(=O)oc2cc(OC(C)(C)C(=O)O)ccc12" and report it.
Solution: 5.62

* * *

- System: HCT-116
- testSummary: Antiproliferative activity against human HCT-116 cells assessed as reduction in cell viability incubated for 72 hrs by MTT assay
- Assay type: functional, cell-based
- cond: HCT-116, 72 h
observable: IC50 (µM)
// return numeric value only (unit: µM, not printed)

Exercise: Return reported IC50. Input compound: "CCN(CC)c1ccc2cc(C(=O)/C=C/c3ccc(OC)c(O)c3)c(=O)oc2c1"
Solution: 3.6
